Source listed as ChEMBL document CHEMBL3885881.

# Organism: Rattus norvegicus
# Assay Method Text: DrugMatrix - Regimen: Daily Repeat
# Assay type: toxicity, organism-based, Sprague-Dawley
# Design: regimen Daily Repeat, gender Male, age 6-8 weeks
# Assay Conditions: in vivo, po, 0 mg/kg, 120 h, tissue Blood, route oral GAVAGE, dose level Control, time 5 day, vehicle .5 % CMC
Experimental Endpoint: HEMOGLOBIN (G/DL)
Express your answer in G/DL, writing the number without its unit.

CC(=O)Nc1ccc2c(c1)Cc1ccccc1-2 [2-ACETYLAMINOFLUORENE] :: 13.22
CC(C)Cc1ccc([C@H](C)C(=O)O)cc1 [DEXIBUPROFEN] :: 13.98
O=C(O)CCc1nc(-c2ccccc2)c(-c2ccccc2)o1 [OXAPROZIN] :: 14.27
CCN1CCN(c2cc3c(cc2F)c(=O)c(C(=O)O)cn3C2CC2)CC1 [ENROFLOXACIN] :: 15.24
COc1ccc(Cl)cc1C(=O)NCCc1ccc(S(=O)(=O)NC(=O)NC2CCCCC2)cc1 [GLYBURIDE] :: 14.82

Request: State the recorded HEMOGLOBIN for this entry: COc1cc(NC(C)CCCN)c2ncccc2c1 (configuration not stated) [PRIMAQUINE]
Result: 15.83

Request: Can you handle CCN1CCCC1CNC(=O)c1cc(S(N)(=O)=O)ccc1OC (configuration not stated) [SULPIRIDE] next?
Result: 14.27

---

# Species: Rattus norvegicus
# Assay Method Text: DrugMatrix - Regimen: Daily Repeat
# Format: toxicity, organism-based, Sprague-Dawley
# Parameters: regimen Daily Repeat, gender Male, age 6-8 weeks
# Assay Conditions: in vivo, po, 0 mg/kg, 72 h, tissue Blood, route oral GAVAGE, dose level Control, time 3 day, […]
MEAN CORPUSCULAR HEMOGLOBIN values by entry

Solved entries:
CS(=O)(=O)c1ccc(C2=C(c3ccccc3)C(=O)OC2)cc1 :: 24.97 pg
CC(C)(c1ccc(O)cc1)c1ccc(O)cc1 :: 23.72 pg
CCOC(=O)C1=C(C)NC(C)=C(C(=O)OCC)C1c1ccccc1/C=C/C(=O)OC(C)(C)C :: 24.37 pg
COC(=O)Nc1nc2ccc(C(=O)c3ccccc3)cc2[nH]1 :: 24.48 pg
Oc1ncnc2[nH]ncc12 :: 24.47 pg
CC#C[C@]1(O)CC[C@H]2[C@@H]3CCC4=CC(=O)CCC4=C3[C@@H](c3ccc(N(C)C)cc3)C[C@@]21C :: 25.37 pg

Request: State the recorded MEAN CORPUSCULAR HEMOGLOBIN for this entry: O=C(Nc1ccc(Cl)c(Cl)c1)c1cc(Cl)cc(Cl)c1O [3,3',4',5-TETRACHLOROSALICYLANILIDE]
Result: 23.93 pg

Request: Can you handle CCC(C)(C)C(=O)O[C@H]1C[C@@H](C)C=C2C=C[C@H](C)[C@H](CC[C@@H]3C[C@@H](O)CC(=O)O3)[C@H]21 next?
Result: 25.37 pg

---

NEUTROPHIL values by entry
# Species: Rattus norvegicus
# Assay Method Text: DrugMatrix - Regimen: Daily Repeat
# Format: toxicity, organism-based, Sprague-Dawley
# Design: regimen Daily Repeat, gender Male, age 6-8 weeks
# Assay Conditions: in vivo, po, 0 mg/kg, 72 h, tissue Blood, route oral GAVAGE, dose level Control, time 3 day, vehicle 100 % WATER
Express your answer in %, writing the number without its unit.

Solved entries:
Cc1cn([C@H]2C=C[C@@H](CO)O2)c(=O)[nH]c1=O [STAVUDINE] :: 9.17
Cc1cc(C(C)(C)C)c(O)c(C)c1CC1=NCCN1 [OXYMETAZOLINE] :: 8.5
NN [HYDRAZINE] :: 10.17
CC(Cl)(Cl)Cl [TRICHLOROETHANE] :: 8.33
CCN(CC)C(=S)SSC(=S)N(CC)CC :: 6.5

Request: State the recorded NEUTROPHIL for this entry: C[N+](C)(C)CCOC(N)=O.[Cl-] [CARBACHOL]
Result: 9.17

Request: Can you handle CN1C(=O)OC(C)(C)C1=O [TRIMETHADIONE] next?
Result: 14.5

Request: Can you handle CCC1(c2ccccc2)C(=O)NC(=O)NC1=O [PHENOBARBITAL] next?
Result: 8

Request: Can you handle C1CCN2C[C@@H]3C[C@@H](CN4CCCC[C@@H]34)[C@H]2C1 [SPARTEINE] next?
Result: 8.33

---

# Species on record: Rattus norvegicus
# Assay Method Text: DrugMatrix - Regimen: Daily Repeat
# Format: toxicity, organism-based, Sprague-Dawley
# Design: regimen Daily Repeat, gender Male, age 6-8 weeks
# Assay Conditions: in vivo, iv, 0 mg/kg, […], tissue Blood, dose level Control, time 14 day, vehicle 100 % SALINE
Experimental Endpoint: ABSOLUTE EOSINOPHIL (cells/µL)
Express your answer in cells/µL, writing the number without its unit.

Request: State the recorded ABSOLUTE EOSINOPHIL for this entry: CC(=O)[C@]1(O)Cc2c(O)c3c(c(O)c2[C@@H](O[C@H]2C[C@H](N)[C@H](O)[C@H](C)O2)C1)C(=O)c1ccccc1C3=O
Result: 46.7

---

# Organism: Rattus norvegicus
# Assay Method Text: DrugMatrix - Regimen: Daily Repeat
# Type: toxicity, organism-based, Sprague-Dawley
# Parameters: regimen Daily Repeat, gender Male, age 6-8 weeks
# Assay Conditions: in vivo, iv, 0 mg/kg, […], tissue Blood, dose level Control, time 14 day, vehicle 100 % SALINE
Experimental Endpoint: ABSOLUTE BASOPHIL (cells/µL)
Express your answer in cells/µL, writing the number without its unit.

Request: State the recorded ABSOLUTE BASOPHIL for this entry: CC(=O)[C@]1(O)Cc2c(O)c3c(c(O)c2[C@@H](O[C@H]2C[C@H](N)[C@H](O)[C@H](C)O2)C1)C(=O)c1ccccc1C3=O
Result: 400

---

# Species on record: Rattus norvegicus
# Assay Method Text: DrugMatrix - Regimen: Daily Repeat
# Format: toxicity, organism-based, Sprague-Dawley
# Parameters: regimen Daily Repeat, gender Male, age 6-8 weeks
# Assay Conditions: in vivo, po, 1500 mg/kg, 72 h, tissue Blood, route oral GAVAGE, dose level High, time 3 day, vehicle .5 % CMC
LEUKOCYTE COUNT values by entry
Express your answer in x10E3/uL, writing the number without its unit.

O=C(O)CCc1nc(-c2ccccc2)c(-c2ccccc2)o1 [OXAPROZIN] :: 14.23
CC[C@H]1OC(=O)[C@H](C)[C@@H](O[C@H]2C[C@@](C)(OC)[C@@H](O)[C@H](C)O2)[C@H](C)[C@@H](O[C@@H]2O[C@H](C)C[C@H](N(C)C)[C@H]2O)[C@](C)(O)C[C@@H](C)C(=O)[C@H](C)[C@@H](O)[C@]1(C)O [ERYTHROMYCIN] :: 16.5
Cc1ccc(S(=O)(=O)NC(=O)NN2CCCCCC2)cc1 [TOLAZAMIDE] :: 14.4
COc1ccc(Cl)cc1C(=O)NCCc1ccc(S(=O)(=O)NC(=O)NC2CCCCC2)cc1 [GLYBURIDE] :: 13.87

Shift focus to the following entry.
Request: State the recorded LEUKOCYTE COUNT for this entry: COc1cc(/C=C/C(=O)O)ccc1O [FERULATE]
Result: 14.13

---

# Organism: Rattus norvegicus
# Assay Method Text: DrugMatrix - Regimen: Daily Repeat
# Type: toxicity, organism-based, Sprague-Dawley
# Parameters: regimen Daily Repeat, gender Male, age 6-8 weeks
# Assay Conditions: in vivo, po, 0 mg/kg, 72 h, tissue Plasma, route oral GAVAGE, dose level Control, time 3 day, vehicle 100 % SALINE
ALKALINE PHOSPHATASE values by entry
I'd appreciate it if you wrote the number followed by its unit.

Solved entries:
O=[As][O-].[Na+] [SODIUM ARSENITE] :: 321.33 u/L
CCO :: 321.33 u/L
CCN(CC)N=O :: 340.5 u/L
CC(CN1c2ccccc2Sc2ccccc21)N(C)C (stereo not given) :: 327.67 u/L

Shift focus to the following entry.
Request: State the recorded ALKALINE PHOSPHATASE for this entry: Cc1ccnc2c1NC(=O)c1cccnc1N2C1CC1
Result: 356.33 u/L

---

ABSOLUTE SEGMENTED NEUTROPHIL values by entry
# Species: Rattus norvegicus
# Assay Method Text: DrugMatrix - Regimen: Daily Repeat
# Assay type: toxicity, organism-based, Sprague-Dawley
# Set-up: regimen Daily Repeat, gender Male, age 6-8 weeks
# Assay Conditions: in vivo, po, 0 mg/kg, 72 h, tissue Blood, route oral GAVAGE, dose level Control, time 3 day, vehicle 100 % WATER
I'd appreciate it if you wrote the number followed by its unit.

Solved entries:
CCC1(c2ccccc2)C(=O)NC(=O)NC1=O [PHENOBARBITAL] :: 817.83 CELLS/uL
Cc1cn([C@H]2C=C[C@@H](CO)O2)c(=O)[nH]c1=O [STAVUDINE] :: 887 CELLS/uL
NN [HYDRAZINE] :: 1292.17 CELLS/uL
CCN(CC)C(=S)SSC(=S)N(CC)CC :: 815.33 CELLS/uL

Request: State the recorded ABSOLUTE SEGMENTED NEUTROPHIL for this entry: C1CCN2C[C@@H]3C[C@@H](CN4CCCC[C@@H]34)[C@H]2C1 [SPARTEINE]
Result: 1090.17 CELLS/uL

Request: Can you handle Cc1cc(C(C)(C)C)c(O)c(C)c1CC1=NCCN1 [OXYMETAZOLINE] next?
Result: 1149.5 CELLS/uL

Request: Can you handle C[N+](C)(C)CCOC(N)=O.[Cl-] [CARBACHOL] next?
Result: 887 CELLS/uL

Request: Can you handle CC(Cl)(Cl)Cl [TRICHLOROETHANE] next?
Result: 1090.17 CELLS/uL
